TEST DESCRIPTION: folding stability dG unfold from trypsin proteolysis; higher = more stable
Output class 1 for folding stability dG unfold not less than 0.5 kcal/mol; output class 0 otherwise.

Examples with answers:
SAGGGNVTKTSTTTLPNGTTLVTYTGTSPSSAGSKNLSLLSLPFDVTVTKVEFDPNTGKVTIETVIPPSAGG [r13_413_JUSTAS]	class 1
SAGGSAVSISTVTSTSFPGSGTSVKTYETPDFTVTVTTTRDPNGADTVEIHTDDPEAEKTVREYLASAGGSA [r15_42_JUSTAS]	class 1
SAGGSAGGSAGIVIPLDGRPIVIDMYPNGYMRIEVEPPNGKKKTRTFPGAPIEDILKAIKSAGGSAGGSAGG [r11_934_TrROS]	class 0

Task item: Is the recorded value of folding stability dG unfold equal to or greater than 0.5 kcal/mol for this sequence? SAMVYPYLLRVYLPGSGEVVYFPASSLEEAVELLEEVAALPNVNSVDLYTPDGTKVHFLIDVPPEAFEESAG [r14_747_TrMRF]
Reply: class 1

Task item: Is the recorded value of folding stability dG unfold equal to or greater than 0.5 kcal/mol for this sequence? SAGGSAGGSDIPIEIVDVEHTDNMISVIIKGPDGNYFVINFQFNPGNGKFNVNISIIPPEDLKSAGGSAGGS [r20_70_TrROS]
Reply: class 1

Task item: Is the recorded value of folding stability dG unfold equal to or greater than 0.5 kcal/mol for this sequence? SAGGSAGGSMDLKNAKIISIEETENEIKITIEVDGKLYTITISKEEAEKLKKLLEDLNIEIIPSAGGSAGGS [r12_604_TrROS_Hall]
Reply: class 1

Task item: Is the recorded value of folding stability dG unfold equal to or greater than 0.5 kcal/mol for this sequence? SAGGALAVKVEFDEEIPTATITYRAPVPGEGGAVDVPADEVAAAIAKALGLPDLEEVTVNVPAPDAPLSAGG [r13_327_JUSTAS]
Reply: class 0

====

Kindly supply the reported folding stability dG unfold values for the records listed here.
TEST DESCRIPTION: folding stability dG unfold from chymotrypsin proteolysis; higher = more stable
Numbers only, in kcal/mol.

Below, 3 sequences whose answers are already recorded.
SAGGEVLIDTGPSPEEALYRAYEKGGEVPVIVLEPGSRVLHIFNVRFNPIPKKVEILDEYEIPILPELSAGG [r13_309_TrMRF]	1.46
SAGGSAGGSAGGGMKLRLVTYSITTTNKVFPSLEEALAAPPDETDGVDEIISSSLKPLLSAGGSAGGSAGGS [r10_729_JUSTAS]	0.21
SAGGSAGGSAGSIVLTKTEILPGPENRPIIKTTIYKPPGPITITYPGGDPSKLVIETNSGSAGGSAGGSAGG [r17_64_JUSTAS]	-0.331

// for each sequence below, give its folding stability dG unfold
1. SAGGMSVTVSTHLSPEELRELVREIVEKNPGLEVKAVEVTDPATGEWRAVPLDEVPADRPVTVRVDLSRSAG [r5_357_JUSTAS]
2. SMKIEVEKLEDGTYVITIEDPGEDDIPVTYKAVVFVDPETGKVYVDRNIEDPNVPPELKELFENFIPGIESA [r9_715_TrMRF]
3. SAGMEVKVETVTIEIEVDGKKIEIKVVRVEVRNEDGSIYEFTFIEITVPEDVSEEELRKLLEELGLEPESAG [r5_486_TrROS_Hall]
4. SAGGSAGGSAGGKWHLITFTITMEMYVMKFDPENGKWKPVDPIPMEIQITFLIPPGDPISAGGSAGGSAGGS [r10_610_TrROS]
5. SAGGSMLTPDQVIELPDPNVTATITESEVLEEDPEHGTLLVKYLVVISKNGNPVEEERLLRVPKPVSAGGSA [r2_272_JUSTAS]
6. SAGKKLFIKVKIRVKKKVKLKDGKTVEKEKELTLLIEAESEEEALEAAKKLAEELGLEIEKVEIFKAPSAGG [r19_176_TrROS_Hall]
7. SAGGSAGGSMPVLVSESPVGTLPDGTKVTRVTYRFPNGEILTETVVEPGPGPPTPENVALTLASAGGSAGGS [r12_775_JUSTAS]
8. SAGGSAGGSMEEIIEEIKKKVPKDKYAEIEIEVPFPDGSKKKFKIKFYPETNEFEVEELEEIPSAGGSAGGS [r12_305_TrMRF]

Reply:
1. 0.388
2. 3.1
3. 4.1
4. 5.08
5. -0.476
6. 3.75
7. 1.19
8. 4.12

// for each sequence below, give its folding stability dG unfold
1. SAGGSAKPKIKITITRNEDGSLLVRITLPDGREVELSVDDIKALEDAGINLDDVEITEVEVSPEDLSAGGSA [r15_955_TrROS_Hall]
2. SAGGSAGGSAGGEKVTLTLELPAEEIEELAKALAPPGAKVKITKISYDKENKKVTIEIESAGGSAGGSAGGS [r10_1030_TrROS_Hall]
3. SAGGSAGGSAGGMAENLSPEQLRELAKELGLSEEDLEPGQVVRFRLPNGEVIEVRVEDESAGGSAGGSAGGS [r10_623_TrROS_Hall]
4. SMDFKENQSFYITEITDDEVTFIFNNKPYKFPKEFINSKDTIITIYNGKIKEIKKPKPLKLHPEEIKKLSSA [r9_842_TrMRF]
5. SMEMTPEERLLALLREARKKHPGKKIVLSVEEIEELLGVDLSAEEIAKLLKEELGIDEVEIVEEEEPEEESA [r9_738_TrROS_Hall]
6. SAGLRVVAVARTPDGSLVVVYELPDRLVVLRYTPTAITSVAVFPVPPVPPPPAVPRYYDPVTGRWVDGSAGG [r19_254_TrMRF]
7. SAGGSAEQTATIESVEYNEETGELTIRIRLENGEEVEITVKPDGTITITLPPGAKITEIEIERLPPSAGGSA [r15_959_TrROS_Hall]

Reply:
[2.71, 1.4, 0.372, 1.43, 3.37, 3.64, 2.3]

// for each sequence below, give its folding stability dG unfold
1. SAGPTFEIVSVEEVDGKTYIRIRLPNGRIVTARITEVKRLGPDGKLYIKVEPGMSEEELKALLPPEVLKSAG [r5_462_TrROS_Hall]
2. SAGGSAGGSAMTFKSPEEAKKAAEELEKKTGYKIKITKIEVNEDGEKTVKIEILPPGEKLKSAGGSAGGSAG [r3_59_TrROS_Hall]
3. SAGKPIDLGEVEVEISPVSYDPETGKLTYQARLVTKDGKPIYTASVTYDPKTGKFSISVTPIGYDPSAFSAG [r5_200_TrMRF]

Reply:
1. 2.82
2. 0.544
3. 1.99

// for each sequence below, give its folding stability dG unfold
1. SAKRVNVEIWIPGDWDEIQEIAEDINFPVEIERNPDKPDMYRITFTFPTPEKAPKILDALNKHGMQIEISAG [r14_745_TrROS]
2. SAGMKTYTITVPASEAEEAAEKAAEEIKKELGLPDSDTVEVTVTSYDPKTGTVTITITVTRPLPGGLSLSAG [r5_537_JUSTAS]
3. SAAFKGKNGKTIKITAKVKPNELTPEQVKELALAAVKNIFPENEKVEVKVKVEKLPNGEVLVYVEVKAESAG [r14_389_TrMRF]
4. SAGGSAGGSALPLPPDQRLYVFRDPEGDLYLVRFEDGSEVRTSLKAEDLEKLGVPVVDIGDLSAGGSAGGSA [r18_125_TrMRF]
5. SAGGSAMKVVFYGDEASQKEIAEKAKKEGIEYEAYPGSREEILAYVKENYPDVKMIVYPEGKEYLISAGGSA [r15_712_JUSTAS]

Reply:
1. 1.89
2. 1.76
3. 0.342
4. 1.49
5. 0.094

Task item: Query: folding stability dG unfold; subject: SAGGSASAEELAAELARRLAEELGLEVTKVEITEVTPDRVVVRVTVTVTLPNGEKVTRELTLVLEPSAGGSA [r15_276_TrROS_Hall]
Reply: 3.24
